- target of assay: BTK (Homo sapiens, UniProt Q06187)
- Sequence (Q06187 402-655 limits assumed): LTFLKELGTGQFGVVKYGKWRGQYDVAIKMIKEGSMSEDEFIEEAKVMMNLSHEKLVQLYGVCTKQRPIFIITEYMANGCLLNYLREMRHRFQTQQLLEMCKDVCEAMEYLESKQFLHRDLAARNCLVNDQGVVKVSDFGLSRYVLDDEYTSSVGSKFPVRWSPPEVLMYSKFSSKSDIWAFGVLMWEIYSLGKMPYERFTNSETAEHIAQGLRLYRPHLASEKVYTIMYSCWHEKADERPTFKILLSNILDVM
- protocol summary: biochemical
- measurement conditions: read-out: BTK inhibition (%), 0.75 uM BTK, […] probe 3l, 15 min preincubation
observation type: inhibition at 10 µM (%)

| compound | assay result |
| --- | --- |
| CN[C@@H]1[C@H](O[C@H]2[C@H](O[C@H]3[C@H](O)[C@@H](O)[C@H](N=C(N)N)[C@@H](O)[C@@H]3N=C(N)N)O[C@@H](C)[C@]2(O)CO)O[C@@H](CO)[C@H](O)[C@H]1O | 9.4 |
| C=CC(=O)Nc1cc2c(Nc3ccc(F)c(Cl)c3)ncnc2cc1OCCCN1CCOCC1 | 93.6 |
| O=c1cc(-c2ccc(O)cc2)oc2c([C@@H]3O[C@H](CO)[C@@H](O)[C@H](O)[C@H]3O)c(O)cc(O)c12 | 26.3 |
| C/C=C(/C)C(=O)OC(C)(C)[C@@H]1Cc2c(ccc3ccc(=O)oc23)O1 | -23.9 |
| CCCCc1oc2ccccc2c1C(=O)c1cc(I)c(OCCN(CC)CC)c(I)c1 | 75.5 |
| COC(=O)[C@@H]1[C@H]2C[C@H]3c4[nH]c5ccccc5c4CCN3C[C@@H]2CC[C@@H]1O | -21.8 |
| CCC[C@H](Nc1nc(-c2ccc(NC(=O)NCC)c(OC)c2)ncc1C)c1cccnc1 | -14 |
| CC(=O)N[C@@H](CC(=O)O)C(=O)N[C@@H](CCC(=O)O)C(=O)N[C@H](C(=O)N[C@H](C=O)CC(=O)O)C(C)C | -7.7 |
| OC1CCC(Nc2ncc3nc(Nc4c(F)cc(F)cc4F)n([C@H]4CCOC4)c3n2)CC1 (some centres unmarked) | -10.3 |
| CCOC(=O)[C@H](CCc1ccccc1)N[C@@H](C)C(=O)N1[C@H](C(=O)O)C[C@@H]2CCC[C@@H]21 | -3.9 |
| OC[C@H]1O[C@@](CO)(OC[C@@]2(OC[C@@]3(OC[C@@]4(O[C@H]5O[C@H](CO)[C@@H](O)[C@H](O)[C@H]5O)O[C@H](CO)[C@@H](O)[C@@H]4O)O[C@H](CO)[C@@H](O)[C@@H]3O)O[C@H](CO)[C@@H](O)[C@@H]2O)[C@@H](O)[C@@H]1O | 6.9 |
| CO[C@H]1O[C@H](COS(=O)(=O)O)[C@@H](O[C@@H]2O[C@@H](C(=O)O)[C@@H](O[C@H]3O[C@H](COS(=O)(=O)O)[C@@H](O[C@@H]4O[C@H](C(=O)O)[C@@H](O[C@H]5O[C@H](COS(=O)(=O)O)[C@@H](O)[C@H](O)[C@H]5NS(=O)(=O)O)[C@H](O)[C@H]4O)[C@H](OS(=O)(=O)O)[C@H]3NS(=O)(=O)O)[C@H](O)[C@H]2OS(=O)(=O)O)[C@H](O)[C@H]1NS(=O)(=O)O | -13.6 |
| CC(C)(C)C(O)/C(=C\c1ccc(Cl)cc1)n1cncn1 (centres unmarked) | -16.3 |
| O=C(Nc1nc2cccc(-c3ccc(CN4CCS(=O)(=O)CC4)cc3)n2n1)C1CC1 | 31.7 |
| CCn1cc(-c2ccnc3[nH]c(-c4cccc(CN(C)C)c4)cc23)c(-c2ccc(NC(=O)N(C)C)cc2)n1 | 48.3 |
| CC1=C[C@H]2Cc3[nH]c(=O)ccc3[C@]3(C1)NCCC[C@H]23 | -10 |
| Cc1nc2c(O)cccc2c(=O)[nH]1 | -10.8 |
| Cc1ccc(C=C2C(=O)C3(C)CCC2C3(C)C)cc1 (centres unmarked) | 5.4 |
| O=C(O)CCc1ccc(O)cc1O | -10.9 |
| CCCCCC1=C(C)CCC1=O | -16.2 |
| NC1=N[C@@](c2cccc(-c3cncnc3)c2)(c2ccnc(C(F)F)c2)c2cccc(F)c21 | -5.4 |
| CC(C)=CCC/C(C)=C/C=O | -17 |
| C/C(=C\CNc1ncnc2nc[nH]c12)CO | -13.2 |
| NCc1c[nH]c(=S)n1[C@@H]1CCc2c(F)cc(F)cc2C1 | 4.7 |
| O=C(Nc1cccc(Cl)c1)Nc1ncc(CCNc2ncnc3ccsc23)s1 | 73.1 |
| C[C@H](CCC(=O)NCC(=O)O)[C@H]1CC[C@H]2[C@@H]3[C@H](O)C[C@@H]4C[C@H](O)CC[C@]4(C)[C@H]3C[C@H](O)[C@]12C | -10.1 |
| CCN(CC)CCNC(=O)c1c(C)[nH]c(/C=C2\C(=O)Nc3ccc(-c4csc(-c5ccccc5)n4)cc32)c1C | 29 |
| NC(N)=N/N=C/c1c(Cl)cccc1Cl | -2.3 |
| NC(N)=NCCC[C@H](N)C(=O)NCC(=O)N[C@@H](CC(=O)O)C(=O)O | 9.4 |
